# credit: ChEMBL document CHEMBL2040712

Target Under Test: Polyunsaturated fatty acid 5-lipoxygenase (Homo sapiens)
Sequence (P09917 whole entry): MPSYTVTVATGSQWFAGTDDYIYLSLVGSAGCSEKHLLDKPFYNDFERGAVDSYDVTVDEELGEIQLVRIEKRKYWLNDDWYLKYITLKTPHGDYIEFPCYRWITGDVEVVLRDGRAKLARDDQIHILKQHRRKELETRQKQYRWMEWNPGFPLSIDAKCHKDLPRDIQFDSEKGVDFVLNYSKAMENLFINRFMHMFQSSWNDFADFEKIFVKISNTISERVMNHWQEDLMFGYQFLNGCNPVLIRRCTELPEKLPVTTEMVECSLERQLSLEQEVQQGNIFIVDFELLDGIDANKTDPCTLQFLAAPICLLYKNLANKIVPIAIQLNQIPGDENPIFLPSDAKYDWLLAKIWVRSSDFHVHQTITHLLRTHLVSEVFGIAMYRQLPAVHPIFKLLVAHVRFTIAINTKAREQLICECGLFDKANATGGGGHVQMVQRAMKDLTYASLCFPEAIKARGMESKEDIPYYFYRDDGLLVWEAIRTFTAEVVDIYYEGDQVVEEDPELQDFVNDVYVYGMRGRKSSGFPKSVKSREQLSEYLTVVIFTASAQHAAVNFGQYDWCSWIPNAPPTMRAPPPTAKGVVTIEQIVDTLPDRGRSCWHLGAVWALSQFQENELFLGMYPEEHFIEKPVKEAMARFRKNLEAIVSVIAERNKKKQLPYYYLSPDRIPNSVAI
Measurement Protocol: Inhibition of human recombinant 5-lipoxygenase in cell-free system preincubated for 10 mins before substrate arachidonic acid addition measured after 10 mins by RP-HPLC method
pIC50: −log10 of the molar value.
Test Readout: pIC50

| Molecule Smiles | pIC50 |
| --- | --- |
| Nc1cc(C(=O)O)ccc1Cn1cc(-c2ccc(-c3ccccc3COc3cc(C(F)(F)F)ccc3Cl)cc2)nn1 | 6.05 |

q: Entry O=C(O)c1ccc(Cn2cc(-c3ccc(-c4ccccc4C(=O)O)cc3)nn2)c([N+](=O)[O-])c1 : reported pIC50 = ?
a: < 5.00

q: Entry O=C(O)c1ccc(-c2ccc(-c3cn(Cc4ccc(C(=O)O)cc4[N+](=O)[O-])nn3)cc2)cc1 : reported pIC50 = ?
a: < 5.30

###

Target Under Test: Prostaglandin E synthase (Homo sapiens, UniProt O14684)
Measurement Protocol: Inhibition of mPGES1 in IL-1beta-stimulated human A549 cell assessed as inhibition of PGE2 production preincubated for 15 mins before substrate addition by RP-HPLC method
pIC50: −log10 of the molar value.
Test Readout: pIC50

Would you please look over these solved cases?
| Molecule Smiles | pIC50 |
| --- | --- |
| O=C(O)c1cccc(-c2ccc(-c3cn(Cc4ccc(C(=O)O)cc4[N+](=O)[O-])nn3)cc2)c1 | < 5.00 |
| O=C(O)c1ccc(Cn2cc(-c3ccc(-c4cccs4)cc3)nn2)c([N+](=O)[O-])c1 | 5.26 |
| O=C(O)c1ccc(S(=O)(=O)n2cc(-c3ccc(-c4ccccc4COc4cc(C(F)(F)F)ccc4Cl)cc3)nn2)cc1 | < 5.00 |

q: Entry CN(C)c1ccc2cc(S(=O)(=O)Nc3ccc(-c4ccc(-c5cn(Cc6ccc(C(=O)O)cc6[N+](=O)[O-])nn5)cc4)cc3)ccc2c1 : reported pIC50 = ?
a: < 5.00

q: Entry O=C(O)c1ccc(-c2ccc(-c3cn(Cc4ccc(C(=O)O)cc4[N+](=O)[O-])nn3)cc2)cc1 : reported pIC50 = ?
a: < 5.00

q: Entry O=C(O)c1ccc(Cn2cc(-c3ccc(-c4ccccc4C(=O)O)cc3)nn2)c([N+](=O)[O-])c1 : reported pIC50 = ?
a: < 5.00

q: Entry O=C(O)c1ccc(Cn2cc(-c3ccc(-c4cccc(O)c4)cc3)nn2)c([N+](=O)[O-])c1 : reported pIC50 = ?
a: < 5.00

q: Entry O=C(O)c1ccc(Cn2cc(-c3ccc(-c4ccccc4COc4cc(C(F)(F)F)ccc4Cl)cc3)nn2)c([N+](=O)[O-])c1 : reported pIC50 = ?
a: 5.92

###

Target Under Test: Prostaglandin E synthase (Homo sapiens) (UniProt O14684)
Sequence (whole entry): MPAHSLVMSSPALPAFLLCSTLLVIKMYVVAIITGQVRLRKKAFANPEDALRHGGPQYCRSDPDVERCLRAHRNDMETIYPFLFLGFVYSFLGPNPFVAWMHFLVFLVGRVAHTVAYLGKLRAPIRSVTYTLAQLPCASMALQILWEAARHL
Measurement Protocol: Inhibition of mPGES1 in IL-1beta-stimulated human A549 cell assessed as remaining activity measuring of PGE2 level at 10 uM preincubated for 15 mins before substrate addition by RP-HPLC method
Test Readout: Activity (%)
Supply the numeric figure in %, leaving out any unit text.

| Molecule Smiles | Value Measured |
| --- | --- |
| O=C(O)c1cccc(-c2ccc(-c3cn(Cc4ccc(C(=O)O)cc4[N+](=O)[O-])nn3)cc2)c1 | 82.1 |

q: Entry O=C(O)c1ccc(-c2ccc(-c3cn(Cc4ccc(C(=O)O)cc4[N+](=O)[O-])nn3)cc2)cc1 : reported Activity = ?
a: 93

q: Entry COc1ccc(-c2ccc(-c3cn(Cc4ccc(C(=O)O)cc4[N+](=O)[O-])nn3)cc2)cc1CN1CCOCC1 : reported Activity = ?
a: 87.4

q: Entry O=C(O)c1ccc(Cn2cc(-c3ccc(-c4ccccc4C(=O)O)cc3)nn2)c([N+](=O)[O-])c1 : reported Activity = ?
a: 94.1
